- methodNotes: folding enthalpy; higher = less favourable; fluorescence melt of hairpins on a sequencing array, two-state fit
- details: sodium 0.088 M
// reported folding enthalpy per item
Please answer in the form of a number followed by its unit of measurement.

Solved cases (3 shown):
entrySequence	result
GCATCCGAAAGGAGGTGC ((((((....)))..)))	-24.9 kcal/mol
GACCCAACGAAAGTTGTC (((..(((....))))))	-10.5 kcal/mol
GATCTCACTTGAGATC ((((((....))))))	-39 kcal/mol

Return reported folding enthalpy; argument: GGGGCCTCGAAAGAGCCC (((..(((....))))))
-23.8 kcal/mol

# input sequence: CGCGGAAATGTCCGCG ((((((....)))))) ; wanted: its folding enthalpy
-32.5 kcal/mol

Which value of folding enthalpy has been reported for GCATTGCGAAAGCATGGC ((..(((....)))..)) in the records?
-19.9 kcal/mol

Quick one: folding enthalpy of GCAGTGCGAAAGCTATGC (((..((....))..))) ?
-17.1 kcal/mol

Fill blank: measured folding enthalpy of the sequence GAATAGGGAAACCTATCC (.(((((....))))).) is ____.
-15.5 kcal/mol

If you can, please state the reported folding enthalpy value of GATCGGATGTCCGATC ((((((....)))))) .
-38.2 kcal/mol

Any idea what folding enthalpy was measured for GCCCAAGGAAACTTAGGC (((.(((....))).))) ?
-21.9 kcal/mol

// query folding enthalpy value for entry GATCTCTACCGAGATC ((((((....))))))
-37.1 kcal/mol

Find the recorded folding enthalpy belonging to GATCTGGGAAACCAGATC (((((((....))))))) and report it.
-45.4 kcal/mol

Fill in: folding enthalpy of GTAACGGGAAACCGTCAC ((.((((....)))).)) is ___
-16.4 kcal/mol

Item GCGTTCTCACGC ((((....)))) has what recorded folding enthalpy?
-25.9 kcal/mol

Requested read-out: folding enthalpy. Entry: GGAATCGAAAGATGGTCC ((((((....)))..)))
-8.55 kcal/mol

Request the reported folding enthalpy associated with GCGTTGTCGAAAGACCGC (((..(((....))))))
-27.1 kcal/mol

What measured folding enthalpy goes with GAGAGGGGAAACCCTCCC (.(((((....))))).) ?
-13.7 kcal/mol

Could you share which folding enthalpy value was measured for GATCACACAAGTGATC ((((((....)))))) ?
-42.4 kcal/mol
